Test system: HS-PSS
Assay: relative IC50 (inflection point of fitted dose-response curve, CellTox-Green cytotoxicity, 72 h; top asymptote may be below 50%); higher = less potent

{"MOLECULE": "Cn1ncc(Cl)c1-c1cc(C(=O)N[C@H](CN)Cc2ccc(F)c(F)c2)oc1Cl", "relative IC50": "> 10 µM"}
{"MOLECULE": "O=C(c1cccc(Cl)c1F)N1CCN(Cc2cccc(Nc3nccs3)n2)CC1", "relative IC50": "> 2.5 µM"}
{"MOLECULE": "CC(O)(CS(=O)(=O)c1ccc(F)cc1)C(=O)Nc1ccc(C#N)c(C(F)(F)F)c1 (centres undefined) [Bicalutamide]", "relative IC50": "> 10 µM"}
{"MOLECULE": "C=CC(=O)N1CCC[C@@H](n2nc(-c3ccc(Oc4ccccc4)cc3)c3c(N)ncnc32)C1", "relative IC50": "> 1 µM"}

###

Tested on: HSC2 (primary human Schwann cells)
Assay: % inhibition of CellTiter-Glo viability at highest tested concentration (72 h), relative to DMSO and benzethonium chloride controls; higher = more inhibition
Recorded % inhibition values for a group of compounds are listed next.

{"COMPOUND": "C[C@H]1C=C2C(=O)O[C@H]3CC[C@@H](C1)[C@@]23O [Galiellalactone] (max concentration tested 50000 nM)", "% inhibition": "98.5%"}
{"COMPOUND": "CC[C@@]1(O)C(=O)OCc2c1cc1n(c2=O)Cc2cc3c(CN(C)C)c(O)ccc3nc2-1 [Topotecan] (max concentration tested 10000 nM)", "% inhibition": "93.5%"}
{"COMPOUND": "CN(C)CCN1C(=O)c2cccc3cc(N)cc(c23)C1=O [Amonafide] (max concentration tested 10000 nM)", "% inhibition": "76.3%"}
{"COMPOUND": "Cc1ccc(-c2cc(C(F)(F)F)nn2-c2ccc(S(N)(=O)=O)cc2)cc1 [Celecoxib] (max concentration tested 10000 nM)", "% inhibition": "3.55%"}
{"COMPOUND": "CO[C@@H](C(=O)N1Cc2[nH]nc(NC(=O)c3ccc(N4CCN(C)CC4)cc3)c2C1)c1ccccc1 [Danusertib] (max concentration tested 10000 nM)", "% inhibition": "90.9%"}
{"COMPOUND": "Cn1c(=O)n(-c2ccc(C(C)(C)C#N)cc2)c2c3cc(-c4cnc5ccccc5c4)ccc3ncc21 [Dactolisib] (max concentration tested 1000 nM)", "% inhibition": "78.3%"}
{"COMPOUND": "COc1cc2c(cc1-c1c(C)noc1C)ncc1[nH]c(=O)n([C@H](C)c3ccccn3)c12 [I-BET151] (max concentration tested 10000 nM)", "% inhibition": "67.2%"}
{"COMPOUND": "CC(C)n1cnc2c(NCCc3ccc(O)cc3)nc(-c3csc4ccccc34)nc21 [StemRegenin 1] (max concentration tested 10000 nM)", "% inhibition": "37%"}
{"COMPOUND": "Cn1cnc2c(F)c(Nc3ccc(Br)cc3F)c(C(=O)NOCCO)cc21 [MEK-162] (max concentration tested 1000 nM)", "% inhibition": "-2.17%"}
{"COMPOUND": "CO[C@H]1C[C@@H]2CC[C@@H](C)[C@@](O)(O2)C(=O)C(=O)N2CCCC[C@H]2C(=O)O[C@H]([C@H](C)C[C@@H]2CC[C@@H](O)[C@H](OC)C2)CC(=O)[C@H](C)/C=C(\\C)[C@@H](O)[C@@H](OC)C(=O)[C@H](C)C[C@H](C)/C=C/C=C/C=C/1C [Sirolimus] (max concentration tested 100 nM)", "% inhibition": "23.2%"}
{"COMPOUND": "CN(C)C[C@@H]1CCn2cc(c3ccccc32)C2=C(C(=O)NC2=O)c2cn(c3ccccc23)CCO1 [Ruboxistaurin] (max concentration tested 10000 nM)", "% inhibition": "96.3%"}
